- protocol.text: qHTS assay to identify small molecule antagonists of the estrogen receptor alpha (ER-alpha) signaling pathway using the BG1 cell line - cell viability counter screen (AID 743081);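 note: compound given together with 17beta-estradiol as the ER stimulus; nearly all actives have a fitted effect of over 45% in size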
- condition.context: BG1Luc4E2 viability, CellTiter-Fluor, 22 h; series mostly up to 70.3 µM
Results filed as inconclusive are left out. Activity calls are given as the source filed them. Calls come from the whole dose curve; as a rule, active = well fitted cell-killing curve with a large enough effect in the repeat runs; inconclusive = weak or mixed curves, or effect the other way; inactive = flat fitted curve, though single readings scatter.

>  <compound>
CCc1cccc2c3c([nH]c12)C(CC)(CC(=O)O)OCC3 (stereo not drawn)

>  <outcome>
inactive

$$$$
>  <compound>
IC(I)I

>  <outcome>
inactive

$$$$
>  <compound>
Cc1cccc(Nc2ccccc2C(=O)O)c1C

>  <outcome>
inactive

$$$$
>  <compound>
c1ccc2c(c1)[nH]c1ccccc12

>  <outcome>
inactive

$$$$
>  <compound>
CCCCCC1C(=O)CCC1CC(=O)OC (stereo not drawn)

>  <outcome>
inactive

$$$$
>  <compound>
CCCCCCCCCCCCCO

>  <outcome>
inactive

$$$$
>  <compound>
CC(C)[C@@H]1CC[C@@H](C)CC1=O

>  <outcome>
inactive

$$$$
>  <compound>
Cc1ccc(C)c(O)c1

>  <outcome>
inactive

$$$$
